# testedOn: Yfr024c SH3 domain (GST-fused) (Saccharomyces cerevisiae, UniProt P43603)
# Construct: Experiments were carried out on sensor chips with GST-fused SH3 domains and GST as a control; made in house
# Sequence (P43603 400-459 limits assumed): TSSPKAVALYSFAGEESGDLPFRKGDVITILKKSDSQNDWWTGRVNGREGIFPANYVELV
# protocolNotes: Surface plasmon resonance (BIAcoreX) dissociation constants of peptides, Yfr024c SH3 domain
# Assay type: binding
# measurementContext: Figure 4A; SPR BIAcoreX, GST-SH3 coupled to CM5 chip, GST control; peptides in 10 mM HEPES, 150 mM NaCl, 3.4 mM EDTA, 0.005% P20, pH 7.4, 25°C; steady-state model; read-out: dissociation constant, SH3 DOMAINS YFR024C
pKd: −log10 of the molar value. No end group written: not given here.

# sequenceEntry, relation, pKd
rows = [
    ("DIKTRSVPKIPSIE [DEM1 DIKTRSVPKIPSIE]", "<", 4.00),
    ("NIQPDLPPRKIMIP [YBR239C NIQPDLPPRKIMIP]", "=", 4.66),
    ("STPPTLPPRRIEDP [YMR192 STPPTLPPRRIEDP]", "=", 4.96),
    ("PQQNRPLPQLPNRN [LAS17 PQQNRPLPQLPNRN]", "=", 4.72),
    ("RGPPPLPPRANVQP [ACF2 RGPPPLPPRANVQP]", "=", 5.89),
    ("RPLPQLPNRNNRPV [LAS17 RPLPQLPNRNNRPV]", "=", 5.05),
    ("SGPPLLPPRNTMKN [YJR083C SGPPLLPPRNTMKN]", "=", 5.46),
    ("GTTNRGPPPLPPRA [ACF2 GTTNRGPPPLPPRA]", "=", 5.77),
    ("RAVPILPPRNNVEP [YBR108W RAVPILPPRNNVEP]", "=", 4.85),
    ("SSPPPLPTRRDHIK [YPR171 SSPPPLPTRRDHIK]", "=", 5.32),
    ("NAPERAVPILPPRN [YBR108W NAPERAVPILPPRN]", "=", 5.38),
]

###

# testedOn: Ysc84 SH3 domain (GST-fused) (Saccharomyces cerevisiae, UniProt P32793)
# Construct: Experiments were carried out on sensor chips with GST-fused SH3 domains and GST as a control; made in house
# Sequence (P32793 409-468 limits assumed): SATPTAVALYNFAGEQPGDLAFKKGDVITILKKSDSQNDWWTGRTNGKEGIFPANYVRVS
# protocolNotes: Surface plasmon resonance (BIAcoreX) dissociation constants of peptides, Ysc84 SH3 domain
# Type: binding
# measurementContext: Figure 4A; SPR BIAcoreX, GST-SH3 coupled to CM5 chip, GST control; peptides in 10 mM HEPES, 150 mM NaCl, 3.4 mM EDTA, 0.005% P20, pH 7.4, 25°C; steady-state model; read-out: dissociation constant, SH3 DOMAINS YSC84
pKd: −log10 of the molar value. No end group written: not given here.
Classify as follows. Reported pKd greater than or equal to 5: Fulfilled. Reported pKd below: Not fulfilled.

# sequenceEntry, group
data = [
    ("GTTNRGPPPLPPRA [ACF2 GTTNRGPPPLPPRA]", "Fulfilled"),
    ("NIQPDLPPRKIMIP [YBR239C NIQPDLPPRKIMIP]", "Not fulfilled"),
    ("SSPPPLPTRRDHIK [YPR171 SSPPPLPTRRDHIK]", "Fulfilled"),
    ("PQQNRPLPQLPNRN [LAS17 PQQNRPLPQLPNRN]", "Not fulfilled"),
    ("SGPPLLPPRNTMKN [YJR083C SGPPLLPPRNTMKN]", "Fulfilled"),
    ("RGPPPLPPRANVQP [ACF2 RGPPPLPPRANVQP]", "Fulfilled"),
    ("DIKTRSVPKIPSIE [DEM1 DIKTRSVPKIPSIE]", "Not fulfilled"),
]

Origin of measurements: paper PMC314469
